target: Rsk2 (Homo sapiens, UniProt P51812, Y707A); construct: His; made in house; host or cells: Sf9 (baculovirus, Bac-to-Bac); assay: Rsk kinase ELISA with immobilized substrate and phosphospecific antibodies; format: biochemical; conditions: in vitro kinase assay with immobilized substrate; read-out: IC50 for Rsk
Sequence (P51812 whole entry Y707A): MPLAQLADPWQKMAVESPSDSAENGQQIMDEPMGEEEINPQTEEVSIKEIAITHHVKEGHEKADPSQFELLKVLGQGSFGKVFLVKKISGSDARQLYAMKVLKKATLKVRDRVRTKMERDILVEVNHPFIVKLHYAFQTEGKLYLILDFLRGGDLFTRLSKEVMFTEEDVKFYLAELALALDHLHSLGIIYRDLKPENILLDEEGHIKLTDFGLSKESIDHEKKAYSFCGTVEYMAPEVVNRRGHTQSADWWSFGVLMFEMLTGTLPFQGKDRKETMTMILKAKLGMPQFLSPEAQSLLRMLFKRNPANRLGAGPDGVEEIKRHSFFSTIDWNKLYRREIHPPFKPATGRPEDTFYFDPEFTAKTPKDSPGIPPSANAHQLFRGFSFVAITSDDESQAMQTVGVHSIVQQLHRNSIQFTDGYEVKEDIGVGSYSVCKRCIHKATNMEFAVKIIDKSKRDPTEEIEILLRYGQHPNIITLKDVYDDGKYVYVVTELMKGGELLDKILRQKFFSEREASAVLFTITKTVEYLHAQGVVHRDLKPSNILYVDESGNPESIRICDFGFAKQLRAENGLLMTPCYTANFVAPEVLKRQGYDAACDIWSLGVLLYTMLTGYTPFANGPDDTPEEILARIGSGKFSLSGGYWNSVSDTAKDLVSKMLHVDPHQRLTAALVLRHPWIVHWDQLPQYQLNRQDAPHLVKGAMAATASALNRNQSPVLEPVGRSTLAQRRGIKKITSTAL
Endpoint: pIC50
Field pIC50 (float): negative decimal logarithm of the concentration in molar.

Supply pIC50 value. Item: O=c1c(O)c(-c2ccc(O)cc2)oc2cc(O)cc(O)c12 [kaempferol, reference compound] 4.82

All values here come from patent US20050233985A1.
